# TEST TARGET: M18 aspartyl aminopeptidase (Plasmodium falciparum 3D7)
# TEST DETAILS: inhibition of P. falciparum M18 aspartyl aminopeptidase – biochemical, QFRET fluorogenic substrate, dose response (AID 588678)
# TEST CONTEXT: recombinant PFM18AAP, H-Glu-NHMec fluorogenic substrate cleavage
pIC50: −log10 of the molar value.
READOUT KIND: pIC50

[
  {
    "MOLECULE": "CC(C)(C)C(=O)OCc1nc(-c2ccc(O)c(O)c2)cs1",
    "TEST TARGET": "M18 aspartyl aminopeptidase (Plasmodium falciparum 3D7)",
    "pIC50": 4.88
  }
]

(I) Oc1ccc(CCNC(c2ccccc2)c2ccccc2)cc1O
(II) Oc1ccc(CCNC2CCN(Cc3ccccc3)CC2)cc1O
(III) CN(CCc1ccc(O)c(O)c1)c1ccnc2ccccc12
Arrange these molecules by their pIC50, starting with the largest number. Rank them, then answer with their labels in that order. III, I, II
(III: 5.31, I: 4.98, II: 4.58)

(A) O=C1OCCN1CCc1nc(-c2ccc(O)c(O)c2)cs1
(B) Cc1c(-c2ccccc2)[nH]c(-c2ccc(O)c(O)c2)[n+]1O
(C) O=c1cc(CN2CCN(Cc3ccccc3)CC2)c2ccc(O)c(O)c2o1
(D) Oc1ccc(CCCNc2c3ccccc3nc3ccccc23)cc1O
Arrange these molecules by their pIC50, starting with the largest number. Rank them, then answer with their labels in that order. A, B, D, C
